- Tgt: STAT1 (Homo sapiens, UniProt P42224)
- Sequence (P42224 whole entry, species assumed): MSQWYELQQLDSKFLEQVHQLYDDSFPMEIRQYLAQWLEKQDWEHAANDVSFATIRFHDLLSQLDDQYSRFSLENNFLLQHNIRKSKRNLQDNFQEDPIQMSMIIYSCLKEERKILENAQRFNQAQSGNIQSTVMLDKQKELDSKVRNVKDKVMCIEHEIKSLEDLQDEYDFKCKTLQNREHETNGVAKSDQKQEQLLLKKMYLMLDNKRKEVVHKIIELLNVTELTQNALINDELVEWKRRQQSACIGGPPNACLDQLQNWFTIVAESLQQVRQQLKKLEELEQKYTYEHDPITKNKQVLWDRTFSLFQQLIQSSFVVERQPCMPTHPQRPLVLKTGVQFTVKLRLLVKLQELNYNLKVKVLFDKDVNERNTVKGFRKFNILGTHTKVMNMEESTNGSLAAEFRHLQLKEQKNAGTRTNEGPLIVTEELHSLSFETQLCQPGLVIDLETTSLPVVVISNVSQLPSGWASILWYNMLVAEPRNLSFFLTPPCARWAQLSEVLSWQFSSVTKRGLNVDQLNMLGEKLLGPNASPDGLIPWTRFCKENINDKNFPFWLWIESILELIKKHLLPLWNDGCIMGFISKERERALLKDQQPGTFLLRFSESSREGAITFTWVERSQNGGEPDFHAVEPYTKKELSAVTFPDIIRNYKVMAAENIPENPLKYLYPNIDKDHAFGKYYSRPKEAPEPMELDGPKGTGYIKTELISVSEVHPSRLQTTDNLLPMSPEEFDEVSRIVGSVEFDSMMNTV
pIC50: −log10 of the molar value.
Catalogue of pIC50 values

{"Compound": "O=P(O)(O)Oc1ccc(-c2ccccc2)cc1 [Compound 1, para‐biphenyl phosphate]", "pIC50": 4.80}
{"Compound": "O=P(O)(O)Oc1ccc(-c2ccc3ccccc3c2)cc1", "pIC50": 4.66}
{"Compound": "O=P(O)(O)Oc1ccc(-c2ccc3ccccc3c2)cc1F", "pIC50": 5.11}
{"Compound": "O=P(O)(O)Oc1ccc(-c2ccccc2)cc1F", "pIC50": 4.89}

* * *

- Tgt: STAT3 (Homo sapiens, UniProt P40763)
- Sequence (P40763 whole entry): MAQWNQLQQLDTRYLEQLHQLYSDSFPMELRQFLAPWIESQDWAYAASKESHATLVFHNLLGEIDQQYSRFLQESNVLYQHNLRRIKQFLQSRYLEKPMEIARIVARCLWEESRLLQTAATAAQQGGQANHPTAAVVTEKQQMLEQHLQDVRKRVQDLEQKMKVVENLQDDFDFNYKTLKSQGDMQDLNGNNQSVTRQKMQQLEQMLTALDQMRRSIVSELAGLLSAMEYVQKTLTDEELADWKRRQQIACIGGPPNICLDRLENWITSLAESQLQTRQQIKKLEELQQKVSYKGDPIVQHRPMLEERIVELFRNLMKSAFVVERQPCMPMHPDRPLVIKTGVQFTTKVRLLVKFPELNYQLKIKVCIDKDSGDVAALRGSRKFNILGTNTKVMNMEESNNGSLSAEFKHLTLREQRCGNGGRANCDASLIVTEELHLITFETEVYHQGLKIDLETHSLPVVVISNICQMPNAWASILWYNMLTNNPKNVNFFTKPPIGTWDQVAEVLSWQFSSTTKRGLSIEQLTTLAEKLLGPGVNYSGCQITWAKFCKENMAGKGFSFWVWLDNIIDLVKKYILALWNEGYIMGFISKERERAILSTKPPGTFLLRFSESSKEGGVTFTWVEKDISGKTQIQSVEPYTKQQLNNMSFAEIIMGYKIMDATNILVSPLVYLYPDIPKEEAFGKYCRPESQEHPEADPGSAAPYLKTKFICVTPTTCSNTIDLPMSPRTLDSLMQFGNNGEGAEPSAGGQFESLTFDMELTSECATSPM
- Assay protocol: STAT3 Tyr705 phosphorylation in HCC-827 cells (Western blot)
- Type: cell-based
- Parameters: endogenous in cells
- Condition: serum-free conditions, read-out: IC 50, phosphorylation of STAT3 (Tyr705)
Reported property: IC50

{"Compound": "Cc1cc(-c2ccc(C(F)(F)P(=O)(OCOC(=O)C(C)(C)C)OCOC(=O)C(C)(C)C)c(F)c2)cs1 [Compound 9]", "Val": "19 µM"}

Every entry's value here was drawn from paper PMC12087874.
